tested on: Aβ40 in conditioned medium of cells stably expressing Amyloid Precursor Protein (APP); experiment: In vitro BACE cell-based assay (Aβ40 in conditioned medium, sandwich ELISA); conditions: Homo sapiens, HEK293, average IC50; read-out: HEK cell assay
Criterion: IC50 strictly under 500 nM. Met: TRUE. Not met: FALSE.

Previously resolved entries follow.
# COMPOUND, SYSTEM_UNDER_TEST, LABEL
records = [
    ("NC1=N[C@@]2(CO1)c1cc(OCc3ccc(Br)cc3)ccc1Oc1ncc(-c3cccnc3)cc12 [Example 980]", "Aβ40 in conditioned medium of cells stably expressing Amyloid Precursor Protein (APP)", "TRUE"),
    ("CC1(COc2cc(F)c3c(c2)[C@@]2(CSC(N)=N2)c2cc(-c4cccnc4F)ccc2O3)COC1 [Example 793]", "Aβ40 in conditioned medium of cells stably expressing Amyloid Precursor Protein (APP)", "FALSE"),
]

input: Given NC1=N[C@@]2(CS1)c1cc(-c3cccnc3)ccc1Oc1c(F)cc(C3=CCCOC3)cc12 [Example 795] , is recorded IC50 strictly lower than 500 nM?
output: TRUE

====

target: UniProt:P56817; assay: In vitro enzymatic BACE FRET (fluorescence resonance energy transfer) assay; assay type: biochemical; details: average IC50, enzyme assay; read-out: BACE 1 FRET assay
PROPERTY_MEASURED: pIC50
When answering, recall that pIC50 equals minus log10 of the concentration in mol/L, and write that number alone.

# COMPOUND, pIC50
rows = [
    ("NC1=N[C@@]2(CO1)c1cc(OCc3ccncc3)ccc1Oc1ncc(C3=CCOCC3)cc12 [Example 970]", 6.95),
    ("CC#Cc1cncc(-c2ccc3c(c2)[C@@]2(COC(N)=N2)c2cc(-c4ncccn4)ncc2O3)c1 [Example 936]", 8.52),
    ("CC1(COc2cc(F)c3c(c2)[C@@]2(CSC(N)=N2)c2cc(-c4cncnc4)c(F)cc2O3)COC1 [Example 876]", 7.35),
]

Lab note: measured pIC50 of CC1(C#Cc2cc(F)c3c(c2)[C@]2(COC(N)=N2)c2cc(-c4ccc(F)nc4)ccc2O3)COC1 [Example 598] was 8.39

Entry C[Si](C)(C)c1cc2c(nc1F)Oc1ccc(Br)cc1[C@@]21COC(N)=N1 [Example 90] , pIC50 reported as 6.06

The compound listed as CC(C)(C)COc1cc(F)c2c(c1)[C@]1(COC(N)=N1)c1cc(-c3cncnc3)c(F)cc1O2 [Example 526] shows pIC50 equal to 8.70

response.value for CC(C)(O)C#Cc1cncc(-c2ccc3c(c2)[C@@]2(COC(N)=N2)c2cc(C4=CCCOC4)ncc2O3)c1 [Example 819] (field: pIC50) = 8.28

====

Consider the following molecules and their measured pIC50 readings.
test system: Aβ40 in conditioned medium of cells stably expressing Amyloid Precursor Protein (APP); test: In vitro BACE cell-based assay (Aβ40 in conditioned medium, sandwich ELISA); details: Homo sapiens, HEK293, average IC50; read-out: HEK cell assay
Please report pIC50 as the negative decimal logarithm of the molar concentration, giving only the number.

Here are 5 molecules together with their reported answers.
# MOLECULE, SYSTEM_UNDER_TEST, pIC50
data = [
    ("NC1=N[C@@]2(CO1)c1cc(-c3ccc(F)nc3)ccc1Oc1c(F)cc(N3CCOCC3)cc12", "Aβ40 in conditioned medium of cells stably expressing Amyloid Precursor Protein (APP)", 7.93),
    ("NC1=N[C@@]2(CO1)c1cc(-c3cncc(F)c3)ccc1Oc1c(F)cc(N3C[C@@H]4C[C@H]3CO4)cc12", "Aβ40 in conditioned medium of cells stably expressing Amyloid Precursor Protein (APP)", 8.48),
    ("NC1=N[C@@]2(CO1)c1cc(-c3cnccn3)ccc1Oc1c(F)cc(N3CCOCC3)cc12", "Aβ40 in conditioned medium of cells stably expressing Amyloid Precursor Protein (APP)", 7.73),
    ("COc1cncc(-c2ccc3c(c2)[C@@]2(COC(N)=N2)c2cc(OCC(C)(C)C#N)cc(F)c2O3)c1", "Aβ40 in conditioned medium of cells stably expressing Amyloid Precursor Protein (APP)", 8.09),
    ("NC1=N[C@@]2(CO1)c1cc(OCc3cccc(Br)c3)ccc1Oc1ncc(-c3cccnc3)cc12", "Aβ40 in conditioned medium of cells stably expressing Amyloid Precursor Protein (APP)", 7.64),
]

Entry "NC1=N[C@@]2(CO1)c1cc(OCc3ccccc3Br)ccc1Oc1ncc(-c3cccnc3)cc12" , pIC50 reported as 6.48

Recorded result, "COc1cc(F)c2c(c1)[C@]1(COC(N)=N1)c1cc(-c3cncc(C#CC(C)(C)O)c3)ccc1O2" , pIC50: 5.52

So for "CC1(COc2cc3c(cc2F)Oc2ccc(-c4cccc(C#N)c4)cc2[C@@]32COC(N)=N2)COC1" , the logged pIC50 turned out to be 7.07

====

Molecular target: Beta Secretase enzyme (BACE) (Homo sapiens)
Sequence (P56817 46-501, species assumed): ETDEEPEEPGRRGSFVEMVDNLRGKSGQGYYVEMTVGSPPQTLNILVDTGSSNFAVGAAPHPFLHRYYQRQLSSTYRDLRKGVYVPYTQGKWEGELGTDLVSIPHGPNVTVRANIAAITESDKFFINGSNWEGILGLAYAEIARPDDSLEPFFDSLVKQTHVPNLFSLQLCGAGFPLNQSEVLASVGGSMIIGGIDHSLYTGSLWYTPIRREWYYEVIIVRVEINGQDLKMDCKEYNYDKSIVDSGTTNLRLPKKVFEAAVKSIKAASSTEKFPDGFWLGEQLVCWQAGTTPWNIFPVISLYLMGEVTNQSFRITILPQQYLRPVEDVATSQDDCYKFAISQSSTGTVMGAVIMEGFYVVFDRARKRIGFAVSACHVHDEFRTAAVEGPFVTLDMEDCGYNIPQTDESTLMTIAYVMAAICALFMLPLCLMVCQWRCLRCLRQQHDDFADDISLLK
Assay: In vitro enzymatic BACE FRET (fluorescence resonance energy transfer) assay
Assay type: biochemical
Conditions: average IC50, enzyme assay; read-out: BACE 1 FRET assay
Experimental: In Vitro Enzymatic Bace Fret (Fluorescence Resonance Energy Transfer) Assay (Enzyme Assay Data in the Example Table I) The assay buffer used in this screen is 0.05 M acetate, pH 4.2, 10% DMSO final, 100 uM genapol (which is a nonionic detergent, below its Critical Micelle Concentration). […] The FRET assay is terminated with by addition of Tris buffer, which raises the pH to neutrality, and the fluorescence is determined. […]
Listing of recorded pIC50 by entry.
The read-out pIC50 is expressed as -log10 of concentration in moles per litre.

Example entries begin here.
# COMPOUND, NUMERIC_READOUT
data = [
    ("COc1ccncc1-c1ccc2c(c1)[C@@]1(COC(N)=N1)c1cc(Cl)ncc1O2 [Example 652]", 5.91),
    ("NC1=N[C@@]2(CO1)c1cc(-c3cccnc3)ccc1Oc1c2cc(-c2ccnc(F)c2)c(F)c1F [Example 1013]", 8.62),
]

// recorded pIC50 for NC1=N[C@@]2(CO1)c1cc(-c3c(F)ccnc3F)ccc1Oc1cnc([C@H]3CCCOC3)cc12 [Example 913] : 7.79

====

test system: Aβ40 in conditioned medium of cells stably expressing Amyloid Precursor Protein (APP); test: In vitro BACE cell-based assay (Aβ40 in conditioned medium, sandwich ELISA); conditions: Homo sapiens, HEK293, average IC50; read-out: HEK cell assay
PROPERTY_MEASURED: pIC50
Scale for pIC50: -log10 of concentration given in mol/L; no unit attached.

Answered cases to consult:
# MOLECULAR_STRING, pIC50
rows = [
    ("NC1=N[C@@]2(CS1)c1cc(-c3cccnc3F)ccc1Oc1c(F)cc(C3=CCCOC3)cc12", 7.92),
    ("CC1(C)C=C(c2cc3c(cn2)Oc2ccc(-c4cncc(F)c4)cc2[C@@]32COC(N)=N2)CCO1", 8.00),
    ("CC(C)(C#N)COc1cc(F)c2c(c1)[C@]1(COC(N)=N1)c1cc(-c3ccc(F)nc3)ccc1O2", 7.88),
]

From here, focus on the item given below.
Data point: "CC1(C#Cc2cc3c(cn2)Oc2ccc(-c4cccnc4F)cc2[C@@]32CSC(N)=N2)COC1" ; pIC50 = 7.82

====

target: Beta Secretase enzyme (BACE) (Homo sapiens); assay: In vitro enzymatic BACE FRET (fluorescence resonance energy transfer) assay; type: biochemical; conditions: average IC50, enzyme assay; read-out: BACE 1 FRET assay
// reported pIC50 per item
Answer as the number alone; pIC50 is minus log10 of concentration in mol/L.

Here is how some compounds turned out for pIC50.
# MOLECULAR_STRING, SYSTEM_UNDER_TEST, NUMERIC_READOUT
rows = [
    ("NC1=N[C@]2(CS1)c1cc(-c3cncc(F)c3)ccc1Oc1cnc(C3=CCOCC3)cc12", "Beta Secretase enzyme (BACE) (Homo sapiens)", 6.43),
    ("CC1(C#Cc2cnc3c(c2)[C@]2(CSC(N)=N2)c2cc(-c4cnccn4)ccc2O3)COC1", "Beta Secretase enzyme (BACE) (Homo sapiens)", 9.10),
    ("NC1=N[C@@]2(CO1)c1cc(OCc3ccccc3Br)ccc1Oc1ncc(-c3cccnc3)cc12", "Beta Secretase enzyme (BACE) (Homo sapiens)", 7.29),
    ("COc1cncc(-c2ccc3c(c2)[C@@]2(COC(N)=N2)c2cc(C4=CCOCC4)ccc2O3)c1", "Beta Secretase enzyme (BACE) (Homo sapiens)", 8.10),
    ("NC1=N[C@@]2(CO1)c1cc(-c3cccnc3F)ccc1Oc1cnc(-c3cncc(F)c3)cc12", "Beta Secretase enzyme (BACE) (Homo sapiens)", 8.92),
    ("COc1cc2c(c(F)c1F)Oc1ccc(-c3cccnc3F)cc1[C@]21COC(N)=N1", "Beta Secretase enzyme (BACE) (Homo sapiens)", 5.25),
]

Record "CC(C)(C)C#Cc1cnc2c(c1)[C@@]1(COC(N)=N1)c1c(ccc(-c3cncnc3)c1F)O2" . Reported pIC50: 6.08

pIC50 measured on "CC1(C)C=C(c2cnc3c(c2)[C@]2(CSC(N)=N2)c2cc(-c4ccc(F)c(C#N)c4)ccc2O3)CCO1" = 8.85

Looking up "CC1(C#Cc2cc3c(c(F)n2)Oc2ccc(-c4cccnc4F)cc2[C@@]32COC(N)=N2)COC1" , I found its pIC50 recorded as 9.22

The compound listed as "NC1=N[C@@]2(CO1)c1cc(-c3cccnc3F)ccc1Oc1c2cc(-c2ccnc(F)c2)nc1F" shows pIC50 equal to 8.70

pIC50 in this record for "Cc1ccn(-c2cc(F)c3c(c2)[C@]2(COC(N)=N2)c2cc(-c4cncnc4)ccc2O3)n1" : 8.62

# pIC50 of "COc1ccc2c(c1)[C@@]1(COC(N)=N1)c1cc(SCc3ccccc3)cnc1O2" = 5.30

For this compound ( "COc1cc(F)c2c(c1)[C@]1(COC(N)=N1)c1cc(-c3cncc(C#CCO)c3)ccc1O2" ), measured pIC50 is 8.96

The value of pIC50 measured for the compound "NC1=N[C@@]2(CO1)c1cc(-c3ccccc3)ncc1Oc1c(F)cc(C3=CCOCC3)cc12" turned out to be 7.76

// sample "CC#Cc1cncc(-c2ccc3c(c2)[C@@]2(COC(N)=N2)c2cc(-c4cccnc4)nc(F)c2O3)c1" , its pIC50 was 9.40

Recorded pIC50 (compound "COc1ncc(Cl)cc1-c1ccc2c(c1)[C@@]1(COC(N)=N1)c1cc(C3=CCOCC3)ncc1O2" ): 8.92

The compound listed as "CC(C)(C#N)COc1cc(F)c2c(c1)[C@@]1(COC(N)=N1)c1cc(-c3cccnc3F)c(F)cc1O2" has a reported pIC50 of 7.10

For reference, reported pIC50 for "NC1=N[C@@]2(CO1)c1cc(-c3cccnc3)ccc1Oc1c2cc(C2=CCOCC2)c(F)c1F" stands at 8.72

Query "CC1(C)C[C@H](c2cc3c(cn2)Oc2ccc(-c4cccnc4F)cc2[C@@]32COC(N)=N2)CCO1" yields pIC50 of 8.23

Looking up "Cc1ncc(-c2cc3c(cn2)Oc2ccc(-c4cccnc4F)cc2[C@@]32COC(N)=N2)cn1" , I see its pIC50 listed as 7.99

Value of pIC50 reported for the compound "CC1(/C=C/c2cc(F)c3c(c2)[C@]2(COC(N)=N2)c2cc(-c4cccnc4F)ccc2O3)COC1" is 8.70
